measured-property: melting point

compound: COc1ccc(S(=O)(=O)CC(O)(CS(=O)(=O)c2ccc(OC)cc2)C(=O)NO)cc1
measured-property: melting point
recorded-measurement: 75 to 80 °C

compound: CC(C)(C)c1ccc(C#N)cc1NC(=O)Nc1cccnc1
measured-property: melting point
recorded-measurement: 194 to 196 °C

compound: COCCOCc1nn(C)c2c1N=C(c1ccc(-n3c(C)nc4cnccc43)cc1)CC(=O)N2C
measured-property: melting point
recorded-measurement: 142 to 144 °C

compound: COc1ccc2[nH]c(C)c(-c3nc(OC)cc(OC)n3)c2c1
measured-property: melting point
recorded-measurement: 182 to 184 °C

compound: Cc1ccc(C(=O)C2C(=O)CCC(C)(C)C2=O)cc1 (configuration not stated)
measured-property: melting point
recorded-measurement: 78 to 79 °C

compound: C=CCc1c(OC)cc(OC)cc1C(=O)O
measured-property: melting point
recorded-measurement: 109 to 111 °C

compound: Cc1cc2c(=O)n3cc(C(N)=O)ccc3nc2s1
measured-property: melting point
recorded-measurement: 350 to 354 °C

---

Overview of recorded melting point for various compounds

compound: CC[C@H](C1CC1)n1cc(Cl)nc(N2CCc3cc(OC)c(F)c(Cl)c32)c1=O
melting point: 128 to 130 °C
//
compound: O=C(O)C(=O)CC(=O)c1cccn1Cc1ccc(Br)cc1
melting point: 184 to 185 °C
//
compound: Cc1ccc2c(c1)C(c1ccccc1Cl)C(=O)N2 (centres undefined)
melting point: 208 °C
//
compound: CN(C)C=C1CCN(Cc2ccc([N+](=O)[O-])cc2)c2ccsc2C1=O
melting point: 214 to 216 °C
//
compound: C=C1CC1(c1ccc(OC)cc1)c1ccc(OC)cc1
melting point: 31 to 32 °C
//
compound: COC(=O)NCC1Cc2cc(Cl)c3ccccc3c2O1 (centres undefined)
melting point: 128 to 130 °C
//
compound: COc1ccc(C(=O)Nc2c(Cl)cncc2Cl)c2c1oc1ccc(NC(=O)NCC(=O)O)cc12
melting point: > 250 °C
//
compound: CN1C2CCC(N3C(=O)c4ccccc4C3=O)C1CC2 (centres undefined)
melting point: 145 to 147 °C
//
compound: CCC(C)NC1=NS(=O)(=O)c2cc([N+](=O)[O-])ccc2N1 (centres undefined)
melting point: 287 to 288 °C
//
compound: C#CCOc1ccc(OC)cc1-c1nc2ncccc2[nH]1
melting point: 220 °C
//
compound: CC(C)(C)c1cc(C2=CCCCC2)c(O)c(C(C)(C)C)c1
melting point: 102 to 104 °C
//
compound: O=C1c2ccccc2C2(c3ccc(Cl)cc3)NCCCCN12 (centres undefined)
melting point: 134 to 135 °C
//
compound: CCCCOc1ccc(C(C)NC(=O)NO)cc1 (centres undefined)
melting point: 125 to 127 °C
//
compound: COc1ccc2c(c1)Sc1c(cc(OC)c(OC)c1Br)N2C
melting point: 135 to 137 °C
//
compound: O=C(NC(C(=O)O)C(=O)O)OCc1ccccc1
melting point: 144 to 145 °C
//
compound: CC(=NOCCOc1ccc(CC2SC(=O)NC2=O)cc1)c1ccc(-c2ccc(F)cc2)cc1 (centres undefined)
melting point: 155 to 156 °C
//
compound: C=C[C@@H](C[C@H](O)[C@H](CC1CCCCC1)NC(=O)[C@H](Cc1c[nH]cn1)NC(=O)[C@@H](CC(=O)N1CCC(C(=O)OCC)CC1)Cc1ccccc1)C(C)C
melting point: 103 °C
//
compound: c1ccc2c(c1)-c1ccccc1C21c2ccccc2-c2ccccc21
melting point: 198 °C
//
compound: Cc1cc(N2CC=C(C(=O)O)CC2)c2cccc(-c3ccc(Cl)cc3Cl)c2n1
melting point: 218 to 220 °C

---

Overview of recorded melting point for various molecules

molecule: Fc1cc(F)c(-c2c(Cl)nc3nc(SCc4ccccc4)nn3c2Cl)c(F)c1
melting point: 106 °C
//
molecule: CNc1nc(-c2cccc(NCc3ccccc3)c2)c2cc(OC)c(OC)cc2n1
melting point: 146 to 148 °C
//
molecule: COC(=O)c1ccc(S(C)(=O)=O)c(-c2nccs2)c1Cl
melting point: 135 to 138 °C
//
molecule: CC1=CN2C(=NC(c3ccc(C)cc3)C2C(=O)C(=O)O)C=C1 (centres undefined)
melting point: 190 to 195 °C

---

measured-property: melting point

molecule: NS(=O)(=O)c1cccc(NC(=O)c2cnn3c(C(F)F)cc(-c4ccc(Cl)cc4)nc23)c1
recorded-measurement: 278 °C
--
molecule: O=C(O)CCC(Oc1cccc(OCc2ccccc2)c1)c1ccccc1 (racemic)
recorded-measurement: 100 to 104 °C
--
molecule: N#CCN1C(=O)COc2cc(F)ccc21
recorded-measurement: 111 to 113 °C
--
molecule: Cc1nc2cc3c(cc2c(=O)[nH]1)C(N(C)c1ccc(C(=O)NC(C(=O)O)c2ccc(CC(=O)O)cc2)c(F)c1)CC3 (mixture of isomers)
recorded-measurement: 196 to 200 °C
--
molecule: CC(C)COC(=O)C(N)C=CCP(=O)(O)O (stereo not given)
recorded-measurement: 163 to 164 °C
--
molecule: COC(=O)C(C#N)=CC1=C(N2CCCC2)CCCC1
recorded-measurement: 133 to 134 °C
--
molecule: CCCCCCCCCCCCC(=O)CC#CCCCC(=O)O
recorded-measurement: 79 to 80.5 °C
--
molecule: COc1ccc(CNc2nnc(N3CCC(CCO)CC3)c3ccc(Cl)cc23)cc1Cl
recorded-measurement: 153 to 155 °C
--
molecule: Cn1c(C(F)(F)F)nn(-c2ccccc2N)c1=O
recorded-measurement: 101 °C
--
molecule: Oc1cc(CCl)nc(C(Cl)(Cl)Cl)n1
recorded-measurement: 138 to 144 °C
--
molecule: CN1CC(Oc2ccc(Nc3cc(-c4cccc(-n5ncc6cc(C(C)(C)C)cc(F)c6c5=O)c4CO)cn(C)c3=O)nc2)C1
recorded-measurement: > 300 °C
--
molecule: CC1(C)Oc2ccc(C#N)cc2[C@@H](NC2=C(F)C(=O)CC2)[C@@H]1O (relative stereo)
recorded-measurement: 250 to 252 °C
--
molecule: COc1ccc(OC)c2c1C(=O)c1c(C)oc(C)c1C2=O
recorded-measurement: 227 to 228 °C
--
molecule: Cc1cc(F)ccc1-c1nc(OCCNC(=O)OC(C)(C)C)nc2c1ccc(=O)n2-c1c(F)cccc1F
recorded-measurement: 103 to 105 °C
--
molecule: CC1=CC(O)C(O)C(C)(C)CC1O (stereo not given)
recorded-measurement: 138 to 139 °C
--
molecule: NC(=O)N(O)CCNC(=O)c1ccc2ccccc2n1
recorded-measurement: 189 to 190 °C
--
molecule: COc1cc(C2CCN(C(=O)CN(C)C)CC2)ccc1Nc1ncc2ccc(-c3ccccc3N(C)S(C)(=O)=O)n2n1
recorded-measurement: 99 to 110 °C
--
molecule: CC(C)N(Cc1ccc(Cl)c(Cl)c1)S(=O)(=O)c1cc2ccccc2s1
recorded-measurement: 133 to 135 °C
--
molecule: NC(=O)c1c(-c2ccccc2)csc1O
recorded-measurement: 108 to 110 °C
--
molecule: COc1cc2ncc(C#N)c(Nc3cc(Br)c(O)c(Br)c3)c2cc1OC
recorded-measurement: > 250 °C

---

measured-property: melting point

structure-smiles-string: CSc1ncc(Cc2cccnc2)c(=O)[nH]1
recorded-measurement: 247 to 249 °C
//
structure-smiles-string: COc1ccc(S(=O)(=O)N2CCc3cccc(-c4ccc(O)cc4)c32)cc1
recorded-measurement: 179 to 180 °C
//
structure-smiles-string: O=C1NC(=O)c2c1c(-c1c(Cl)cccc1Cl)cc1c2c2cc(O)ccc2n1CCCBr
recorded-measurement: 273 to 276 °C

---

Overview of recorded melting point for various molecules

molecule: Clc1ncc(-c2ccnc(N3CCOCC3)n2)c2ccccc12
melting point: 180 to 181 °C

molecule: COc1ccc(OCc2ccccn2)cc1/C=C/c1cc(/C=C/c2c[nH]c3ccccc23)n[nH]1
melting point: 233 to 238 °C

molecule: CN(C)C1(c2ccccc2)CCC(NC(=S)NCCCc2ccccc2)CC1 (stereo unspecified)
melting point: 75 to 80 °C

molecule: COc1ccc(-c2cncc(OC3SCC(O)C(O)C3O)c2)cc1OC (stereo unspecified)
melting point: 211 °C

molecule: CN(C)c1cccc(/C=C/c2c(F)cccc2F)c1
melting point: 69 to 71 °C

molecule: O=C(O)CCSC(c1ccccc1)(c1ccccc1)c1ccccc1
melting point: 205 to 208 °C

molecule: Cc1ccc(C(O)c2cc3ccncc3[nH]2)cc1 (stereo unspecified)
melting point: 78 to 82 °C

molecule: CC(C)NCC(O)COc1ncccc1Cl (stereo unspecified)
melting point: 71 to 73 °C

molecule: CC(=O)OCCc1cccc2c(-c3ccccc3)c([N+](=O)[O-])oc12
melting point: 95 to 98 °C

molecule: COc1cc(C(F)(F)F)nn1-c1ccc(NC(=O)c2ccccc2F)cc1
melting point: 167 to 168 °C

molecule: CNc1ncccc1[N+](=O)[O-]
melting point: 52 to 53 °C

molecule: CCSc1nc(NC(C)=O)ccc1F
melting point: 110 to 114 °C

molecule: CN(CSC(C)(C)C)C(=O)Nc1cccc(C(F)(F)F)c1
melting point: 96 to 99 °C

molecule: OCC(O)COc1cccc2cccnc12 (stereo unspecified)
melting point: 193 to 194 °C

molecule: O=C(c1cc(-c2ccccc2)c2sccc2c1)N1CCCCC1
melting point: 112 °C

molecule: O=C(C1CC1)N1CCC2(CC1)OCCO2
melting point: 72 to 74 °C

molecule: Clc1c(CBr)ccc2c(Cl)c(CBr)ccc12
melting point: 219 to 221 °C

molecule: CCN1c2ncc(COc3ccc(O)cc3)cc2C(=O)N(C)c2ccc(Cl)nc21
melting point: 199 to 200 °C

molecule: Cc1cc(Oc2ccc([N+](=O)[O-])cc2C(F)(F)F)nn1C(=O)NC(C)C
melting point: 90 to 92 °C

molecule: Cn1c(COc2ccc(C#N)cc2)nc2nc(C=O)ccc21
melting point: 231 to 234 °C

molecule: O=C(O)c1ccc2c(=O)n(Cc3ccc(Cl)cc3Cl)cnc2c1
melting point: 244 to 246 °C

molecule: Cc1cc(C)cc(N2CCN(C(=O)NCC(c3ccccc3)c3ccccc3)CC2)c1
melting point: 174 to 175 °C

molecule: COc1ccc(-c2ccc(Cl)cc2)cc1OC1CCCC1
melting point: 88 to 91 °C

molecule: CCOC(=O)c1cc(C(=O)OCC)cc([N+](=O)[O-])c1
melting point: 83.5 °C

molecule: Cc1nnc(Sc2nc3cc(C(=O)c4ccccc4)ccc3nc2C(F)(F)F)s1
melting point: 176 to 179 °C

molecule: CCn1c(=O)n(C)c(=O)c2c(C)onc21
melting point: 88 to 89 °C
